- system_under_test: T1, human complement component C6 (human, UniProt P13671 22-934)
- T1 construct: Protein was purified from human serum (113 kDa); biotinylated in the Fab ELISAs; also called human C6; hC6
- method: ELISA on biotinylated hC6 and Biacore 3000 off-rate screening of periplasmic extracts on immobilized hC6

{"binder": "humanized 7E5 Fab 8F07 (Fab, V domains shown, also called 8F7) VH: EVQLVESGGGLVQPGGSLRLSCAASGFSFSDYYMAWVRQGPGKGLEWVATINYDGSSTYYRESVKGRFTISRDNAKNTLYLQMNSLRSEDTATYYCARPSTEALFAYWGHGTLVTVSS VL: DVVLTQTPLTLSVTPGQSVSISCRSSQSLLNDVGNTYLYWYLQKPGQSPQLLIYLVSDLGSGVPDRFSGSGSGTDFTLKISGVEAEDVGVYYCMQASHAPYTFGAGTKLEIK", "binding result": "binds"}
{"binder": "humanized 7E5 Fab 7E11 (Fab, V domains shown) VH: EVQLVESGGGLVQPGGSLRLSCVASGFTFSDYYMAWVRQAPGKGLEWVATINYDGSSTYYRESVKGRFTISRDNAKNTLYLQMDSLRAEDTAVYYCARPSTEALFAYWGQGTLVTVSS VL: DIVLTQTPLSLSATPGQSVSISCRSSQSLLNDVGNTYLYWYLQRPGQSPQLLIYLVSDLGSGVPDRFSGSGSGTDFTLKISRVEAEDVGVYYCMQASHAPYTFGAGTNLEIK", "binding result": "binds"}

Each recorded value in this set is attributed to patent US20210060157A1.
